These entries and their values trace back to ChEMBL document CHEMBL2069238.

Target Desc: Inhibitor of nuclear factor kappa-B kinase subunit alpha (Homo sapiens, UniProt O15111)
Sequence (O15111 whole entry): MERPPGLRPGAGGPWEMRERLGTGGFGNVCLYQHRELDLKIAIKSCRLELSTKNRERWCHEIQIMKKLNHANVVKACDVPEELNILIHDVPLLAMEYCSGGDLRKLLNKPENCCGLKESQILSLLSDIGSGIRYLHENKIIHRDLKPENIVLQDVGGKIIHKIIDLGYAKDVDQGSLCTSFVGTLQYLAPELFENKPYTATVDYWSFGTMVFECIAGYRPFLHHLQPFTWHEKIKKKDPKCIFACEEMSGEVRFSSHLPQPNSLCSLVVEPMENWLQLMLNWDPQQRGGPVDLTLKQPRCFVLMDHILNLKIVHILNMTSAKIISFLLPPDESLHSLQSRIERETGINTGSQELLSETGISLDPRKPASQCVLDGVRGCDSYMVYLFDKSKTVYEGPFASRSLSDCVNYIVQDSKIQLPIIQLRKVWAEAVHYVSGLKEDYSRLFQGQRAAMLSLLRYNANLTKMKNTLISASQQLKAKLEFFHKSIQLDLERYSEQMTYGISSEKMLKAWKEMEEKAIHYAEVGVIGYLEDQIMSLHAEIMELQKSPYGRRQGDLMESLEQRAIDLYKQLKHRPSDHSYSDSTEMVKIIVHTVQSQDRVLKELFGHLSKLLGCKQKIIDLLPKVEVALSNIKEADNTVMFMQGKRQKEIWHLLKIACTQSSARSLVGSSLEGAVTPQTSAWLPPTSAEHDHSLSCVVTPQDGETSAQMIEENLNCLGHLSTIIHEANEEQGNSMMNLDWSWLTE
Assay Comment: Inhibition of IKKalpha
Measured IC50, listed per entry.
Parameter: IC50

CN1CCN(CCCOc2ccc(N3C(=O)/C(=C/c4ccc(Oc5ccc(C(N)=O)cc5)cc4)SC3=S)cc2)CC1; > 30 µM
CN1CCN(CCCOc2ccc(N3C(=O)/C(=C/c4ccc(Oc5cccc(C(N)=O)c5)cc4)SC3=S)cc2)CC1; > 30 µM
NC(=O)c1ccc(Oc2ccc(/C=C3\SC(=S)N(c4ccc(OCCCN5CCCC5)cc4)C3=O)cc2)cc1; > 30 µM
N#Cc1c(C2CCCNC2)cc(-c2ccccc2O)nc1N (centres undefined); 0.64 µM

====

Measured inhibition, listed per entry.
Target Desc: Inhibitor of nuclear factor kappa-B kinase subunit beta (Homo sapiens)
Sequence (whole entry): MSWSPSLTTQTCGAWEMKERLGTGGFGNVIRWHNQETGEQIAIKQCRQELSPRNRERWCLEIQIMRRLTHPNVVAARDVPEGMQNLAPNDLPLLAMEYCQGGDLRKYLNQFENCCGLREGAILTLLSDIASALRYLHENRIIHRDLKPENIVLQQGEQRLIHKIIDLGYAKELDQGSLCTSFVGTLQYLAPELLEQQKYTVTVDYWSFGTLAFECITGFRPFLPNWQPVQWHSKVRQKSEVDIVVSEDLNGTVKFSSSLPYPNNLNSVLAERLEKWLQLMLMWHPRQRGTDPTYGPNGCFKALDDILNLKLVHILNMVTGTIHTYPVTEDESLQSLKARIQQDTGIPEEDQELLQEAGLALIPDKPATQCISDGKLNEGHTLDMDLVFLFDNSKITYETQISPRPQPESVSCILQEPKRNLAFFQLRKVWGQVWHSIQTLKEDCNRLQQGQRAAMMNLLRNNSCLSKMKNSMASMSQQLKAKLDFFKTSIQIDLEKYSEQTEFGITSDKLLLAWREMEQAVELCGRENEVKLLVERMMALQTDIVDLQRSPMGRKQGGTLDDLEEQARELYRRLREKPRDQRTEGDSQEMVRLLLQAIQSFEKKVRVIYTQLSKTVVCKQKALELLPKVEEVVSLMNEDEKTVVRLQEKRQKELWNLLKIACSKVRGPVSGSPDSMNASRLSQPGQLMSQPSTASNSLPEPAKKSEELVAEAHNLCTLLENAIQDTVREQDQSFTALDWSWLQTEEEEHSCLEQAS
Assay Comment: Inhibition of IKKbeta in human HeLa cells assessed as inhibition of TPA-induced NFkappaB activation at 10 uM incubated for 1 hr prior to TPA-challenge measured after 8 hrs by luciferase reporter gene assay
Assay type: cell-based
Parameter: inhibition (%)

CCN(CC)CCCOc1ccc(N2C(=O)/C(=C/c3ccc(Oc4ccc(Cl)cc4)cc3)SC2=S)cc1; 71.4
CCN(CC)CCOc1ccc(N2C(=O)/C(=C/c3ccc(Oc4ccc(C(N)=O)cc4)cc3)SC2=S)cc1; 58.5
NC(=O)c1cccc(Oc2ccc(/C=C3\SC(=S)N(c4ccc(OCCCN5CCCC5)cc4)C3=O)cc2)c1; 57

====

Target Desc: Inhibitor of nuclear factor kappa-B kinase subunit beta (Homo sapiens) (UniProt O14920)
Assay Comment: Inhibition of IKKbeta using 5FAM-GRHDSGLDSMK-NH2 as substrate at 10 uM incubated for 10 mins prior to substrate addition by IMAP-TR-FRET assay
Tick condition met if inhibition is 60% or greater. Tick condition not met if inhibition is less than 60%.

CN1CCN(CCCOc2ccc(N3C(=O)/C(=C/c4ccc(Oc5cccc(C(N)=O)c5)cc4)SC3=S)cc2)CC1; condition met
CCN(CC)CCCOc1ccc(N2C(=O)/C(=C/c3ccc4ccccc4c3)SC2=S)cc1; condition not met
NC(=O)c1ccccc1Oc1ccc(/C=C2\SC(=S)N(c3ccc(OCCCN4CCCCC4)cc3)C2=O)cc1; condition not met
CN1CCN(CCCOc2ccc(N3C(=O)/C(=C/c4ccc(Oc5ccc(C(N)=O)cc5)cc4)SC3=S)cc2)CC1; condition met
CCN(CC)CCCOc1ccc(N2C(=O)/C(=C/c3ccc(Oc4ccc(C(N)=O)cc4)cc3)SC2=S)cc1; condition met
NC(=O)c1cccc(Oc2ccc(/C=C3\SC(=S)N(c4ccc(OCCCN5CCCC5)cc4)C3=O)cc2)c1; condition not met
NC(=O)c1cccc(Oc2ccc(/C=C3\SC(=S)N(c4ccc(OCCCN5CCCCC5)cc4)C3=O)cc2)c1; condition met
NC(=O)c1ccc(Oc2ccc(/C=C3\SC(=S)N(c4ccc(OCCCN5CCCCC5)cc4)C3=O)cc2)cc1; condition met
CCN(CC)CCOc1ccc(N2C(=O)/C(=C/c3ccc(Oc4ccc(C(N)=O)cc4)cc3)SC2=S)cc1; condition met
CCN(CC)CCCOc1ccc(N2C(=O)/C(=C/c3ccc(-c4cccc(C(N)=O)c4)o3)SC2=S)cc1; condition met
NC(=O)c1cccc(-c2ccc(/C=C3\SC(=S)N(c4ccc(OCCCN5CCOCC5)cc4)C3=O)o2)c1; condition not met
NC(=O)c1ccc(Oc2ccc(/C=C3\SC(=S)N(c4ccc(OCCCN5CCCC5)cc4)C3=O)cc2)cc1; condition met
CCN(CC)CCCOc1ccc(N2C(=O)/C(=C/c3ccc(Oc4ccc(Cl)cc4)cc3)SC2=S)cc1; condition not met
CCN(CC)CCCOc1ccc(N2C(=O)/C(=C/C=C/c3ccc(N(C)C)cc3)SC2=S)cc1; condition not met
CCN(CC)CCCOc1ccc(N2C(=O)/C(=C/c3ccc(C(N)=O)cc3)SC2=S)cc1; condition not met
CCN(CC)CCOc1ccc(N2C(=O)/C(=C/c3ccc(Oc4cccc(C(N)=O)c4)cc3)SC2=S)cc1; condition not met
NC(=O)c1ccccc1Oc1ccc(/C=C2\SC(=S)N(c3ccc(OCCCN4CCCC4)cc3)C2=O)cc1; condition not met
CN1CCN(CCCCCOc2ccc(N3C(=O)/C(=C/c4ccc(Oc5ccc(C(N)=O)cc5)cc4)SC3=S)cc2)CC1; condition met
